Organism: Homo sapiens
Experiment: Liver toxicity in human assessed as induction of drug-induced liver injury by measuring verified drug-induced liver injury concern status
measurement name: DILI_Concern

Use these answered entries as a reference point.
{"compound": "CCN1CCN(C(=O)N[C@@H](C(=O)N[C@@H]2C(=O)N3[C@@H]2SC(C)(C)[C@@H]3C(=O)O)c2ccccc2)C(=O)C1=O [PIPERACILLIN]", "DILI_Concern": "Ambiguous-Dili-Concern"}
{"compound": "C[N+](C)(C)CC(=O)O [BETAINE]", "DILI_Concern": "No-Dili-Concern"}
{"compound": "Nc1ccc(S(=O)(=O)Nc2ncccn2)cc1 [SULFADIAZINE]", "DILI_Concern": "Less-Dili-Concern"}
{"compound": "C#CCC(Cc1cnc2nc(N)nc(N)c2n1)c1ccc(C(=O)N[C@@H](CCC(=O)O)C(=O)O)cc1 (some centres undefined) [PRALATREXATE]", "DILI_Concern": "Ambiguous-Dili-Concern"}
{"compound": "CC(C)NCC(O)COc1cccc2[nH]ccc12 (centres undefined) [PINDOLOL]", "DILI_Concern": "No-Dili-Concern"}
{"compound": "C#CCN(C)[C@H](C)Cc1ccccc1 [SELEGILINE]", "DILI_Concern": "No-Dili-Concern"}

DILI_Concern for CC(C)c1cccc(C(C)C)c1O [PROPOFOL] is Less-Dili-Concern

DILI_Concern for COc1ccc(CC2c3cc(OC)c(OC)cc3CC[N+]2(C)CCC(=O)OCCCCCOC(=O)CC[N+]2(C)CCc3cc(OC)c(OC)cc3C2Cc2ccc(OC)c(OC)c2)cc1OC (centres undefined) is No-Dili-Concern

* * *

Species on record: Homo sapiens
Assay: Liver toxicity in human assessed as induction of drug-induced liver injury by measuring verified drug-induced liver injury concern status

{"molecule": "CC(=O)Nc1c(I)c(NC(C)=O)c(I)c(C(=O)O)c1I [DIATRIZOIC ACID]", "DILI_Concern": "No-Dili-Concern"}
{"molecule": "CN(C)CCOC(c1ccccc1)c1ccccc1.Cn1c(=O)c2[nH]c(Cl)nc2n(C)c1=O [DIMENHYDRINATE]", "DILI_Concern": "No-Dili-Concern"}

* * *

Species: Homo sapiens
Experiment: Liver toxicity in human assessed as induction of drug-induced liver injury by measuring verified drug-induced liver injury concern status
measurement name: DILI_Concern

Use these answered entries as a reference point.
{"molecule": "CC#C[C@]1(O)CC[C@H]2[C@@H]3CCC4=CC(=O)CCC4=C3[C@@H](c3ccc(N(C)C)cc3)C[C@@]21C [MIFEPRISTONE]", "measured value": "No-Dili-Concern"}
{"molecule": "C[C@]12CC[C@H]3[C@@H](CCC4=CC(=O)CC[C@@]43C)[C@@H]1CC[C@@H]2O [TESTOSTERONE]", "measured value": "Most-Dili-Concern"}
{"molecule": "C/C(=N\\O)C(C)NCC(C)(C)CNC(C)/C(C)=N/O (configuration not stated) [EXAMETAZIME]", "measured value": "No-Dili-Concern"}
{"molecule": "Cc1cc2nc3c(=O)[nH]c(=O)nc-3n(C[C@H](O)[C@H](O)[C@H](O)CO)c2cc1C [RIBOFLAVIN]", "measured value": "No-Dili-Concern"}
{"molecule": "CN(C)CCCN1c2ccccc2CCc2ccccc21 [IMIPRAMINE]", "measured value": "Less-Dili-Concern"}
{"molecule": "CNCCC(Oc1ccc(C(F)(F)F)cc1)c1ccccc1 (configuration not stated) [FLUOXETINE]", "measured value": "Less-Dili-Concern"}
{"molecule": "CC(C)(N)Cc1ccccc1 [PHENTERMINE]", "measured value": "Less-Dili-Concern"}
{"molecule": "COc1ccc(C(CN(C)C)C2(O)CCCCC2)cc1 (configuration not stated) [VENLAFAXINE]", "measured value": "Less-Dili-Concern"}
{"molecule": "C=CC1=C(C(=O)O)N2C(=O)[C@@H](NC(=O)/C(=N\\OCC(=O)O)c3csc(N)n3)[C@H]2SC1 [CEFIXIME]", "measured value": "Ambiguous-Dili-Concern"}
{"molecule": "CCN(CC)C(C)C(=O)c1ccccc1 (configuration not stated) [DIETHYLPROPION]", "measured value": "No-Dili-Concern"}

DILI_Concern for CC1=C(CC(=O)O)c2cc(F)ccc2/C1=C\c1ccc([S+](C)[O-])cc1 (configuration not stated) is Most-Dili-Concern

DILI_Concern for CC(C)Nc1cccnc1N1CCN(C(=O)c2cc3cc(NS(C)(=O)=O)ccc3[nH]2)CC1 [DELAVIRDINE] is Ambiguous-Dili-Concern

DILI_Concern for O=C(CCNNC(=O)c1ccncc1)NCc1ccccc1 [NIALAMIDE] is Most-Dili-Concern

* * *

Organism: Homo sapiens
Experiment: Liver toxicity in human assessed as induction of drug-induced liver injury by measuring severity class index
measurement name: DILI_severity_class
// keep it numeric: no unit symbol after the value

DILI_severity_class for "Nc1nc(NC2CC2)c2ncn([C@H]3C=C[C@@H](CO)C3)c2n1" is 8

* * *

Organism: Homo sapiens
Assay: Liver toxicity in human assessed as induction of drug-induced liver injury by measuring verified drug-induced liver injury concern status

{"compound": "NC(=O)N1c2ccccc2CC(=O)c2ccccc21 [OXCARBAZEPINE]", "DILI_Concern": "Less-Dili-Concern"}
{"compound": "CN1CCC(=C2c3ccccc3C=Cc3ccccc32)CC1", "DILI_Concern": "Less-Dili-Concern"}
{"compound": "CCOC(=O)C1=C(C)NC(C)=C(C(=O)OC)C1c1cccc(Cl)c1Cl (stereo not given)", "DILI_Concern": "Less-Dili-Concern"}

* * *

Organism: Homo sapiens
Test: Liver toxicity in human assessed as induction of drug-induced liver injury by measuring severity class index
Assign YES to entries whose DILI_severity_class meets or exceeds 7; assign NO to the rest.

Please review the entries below; each comes with its answer.
{"molecule": "CO[C@H]1C[C@@H]2CC[C@@H](C)[C@@](O)(O2)C(=O)C(=O)N2CCCC[C@H]2C(=O)O[C@H]([C@H](C)C[C@@H]2CC[C@@H](O)[C@H](OC)C2)CC(=O)[C@H](C)/C=C(\\C)[C@@H](O)[C@@H](OC)C(=O)[C@H](C)C[C@H](C)/C=C/C=C/C=C/1C [SIROLIMUS]", "group": "YES"}
{"molecule": "CN[C@H]1CC[C@@H](c2ccc(Cl)c(Cl)c2)c2ccccc21 [SERTRALINE]", "group": "NO"}
{"molecule": "Nc1ccn([C@@H]2O[C@H](CO)[C@@H](O)C2(F)F)c(=O)n1 [GEMCITABINE]", "group": "YES"}
{"molecule": "CCCN[C@H]1CCc2nc(N)sc2C1 [PRAMIPEXOLE]", "group": "NO"}
{"molecule": "CN(C)CCC(c1ccc(Br)cc1)c1ccccn1 (stereo not drawn) [BROMPHENIRAMINE]", "group": "NO"}

Next up:
Does O=C(CCCCCCC(=O)Nc1ccccc1)NO [VORINOSTAT] have a reported DILI_severity_class of at least 7?
NO

* * *

Species on record: Homo sapiens
Assay: Liver toxicity in human assessed as induction of drug-induced liver injury by measuring verified drug-induced liver injury concern status

{"structure string": "CC[C@@H](C(N)=O)N1CCCC1=O", "DILI_Concern": "Less-Dili-Concern"}
{"structure string": "COCCCOc1cc(C[C@@H](C[C@H](N)[C@@H](O)C[C@H](C(=O)NCC(C)(C)C(N)=O)C(C)C)C(C)C)ccc1OC", "DILI_Concern": "Less-Dili-Concern"}

* * *

Species on record: Homo sapiens
Assay: Liver toxicity in human assessed as induction of drug-induced liver injury by measuring severity class index
Measured DILI_severity_class, listed per entry.
// keep it numeric: no unit symbol after the value

Use these answered entries as a reference point.
{"molecule": "C[C@]12C=CC(=O)C=C1CC[C@@H]1[C@@H]2[C@@H](O)C[C@@]2(C)[C@H]1CC[C@]2(O)C(=O)CO", "measurement name": "DILI_severity_class", "measured value": 3}
{"molecule": "CC1=C(C(=O)O)N2C(=O)[C@@H](NC(=O)[C@H](N)c3ccc(O)cc3)[C@H]2SC1", "measurement name": "DILI_severity_class", "measured value": 7}
{"molecule": "Cc1ccccc1C(OCCN(C)C)c1ccccc1 (centres undefined)", "measurement name": "DILI_severity_class", "measured value": 0}

Below: the item to evaluate.
DILI_severity_class for "CC(C)CN(C[C@@H](OP(=O)(O)O)[C@H](Cc1ccccc1)NC(=O)O[C@H]1CCOC1)S(=O)(=O)c1ccc(N)cc1" is 3

* * *

Species: Homo sapiens
Test: Liver toxicity in human assessed as induction of drug-induced liver injury by measuring severity class index
Positions of bridges follow the written chain, without caps; N, C: chain ends. Non-standard residues stand in square brackets, D forms with d. Residues, ends and D or L forms follow the SMILES beside them. *: point of attachment. Ileψ(thiazoline)Cys = CC[C@H](C)[C@H](N)C1=N[C@H](C(=O)*)CS1; dOrn = NCCC[C@@H](N)C(=O)O
Measured DILI_severity_class, listed per entry.
// keep it numeric: no unit symbol after the value

Use these answered entries as a reference point.
{"molecule": "Nc1ccc(S(=O)(=O)Nc2nccs2)cc1", "measurement name": "DILI_severity_class", "measured value": 8}
{"molecule": "Nc1nc(F)nc2c1ncn2[C@@H]1O[C@H](COP(=O)(O)O)[C@@H](O)[C@@H]1O [FLUDARABINE PHOSPHATE]", "measurement name": "DILI_severity_class", "measured value": 0}
{"molecule": "CCN(CC)CCOc1ccc(C(=C(Cl)c2ccccc2)c2ccccc2)cc1", "measurement name": "DILI_severity_class", "measured value": 3}
{"molecule": "CC[C@H](C)[C@H](N)C1=N[C@H](C(=O)N[C@@H](CC(C)C)C(=O)N[C@H](CCC(=O)O)C(=O)N[C@H](C(=O)N[C@H]2CCCCNC(=O)[C@H](CC(N)=O)NC(=O)[C@@H](CC(=O)O)NC(=O)[C@H](Cc3cnc[nH]3)NC(=O)[C@@H](Cc3ccccc3)NC(=O)[C@H]([C@@H](C)CC)NC(=O)[C@@H](CCCN)NC2=O)[C@@H](C)CC)CS1 [BACITRACIN] ({Ileψ(thiazoline)Cys}-L[dE]IK[dOrn]I[dF]H[dD]N; lactam 4-C)", "measurement name": "DILI_severity_class", "measured value": 0}
{"molecule": "Cc1onc(-c2c(Cl)cccc2Cl)c1C(=O)N[C@@H]1C(=O)N2[C@@H]1SC(C)(C)[C@@H]2C(=O)O", "measurement name": "DILI_severity_class", "measured value": 3}
{"molecule": "CC(C)(C(=O)c1cccnc1)c1cccnc1", "measurement name": "DILI_severity_class", "measured value": 0}

DILI_severity_class for "O=C1CCc2cc(OCCCCc3nnnn3C3CCCCC3)ccc2N1" is 5

DILI_severity_class for CCN(CC)C(C)C(=O)c1ccccc1 (stereo not given) is 0

DILI_severity_class for "C[C@H](N)Cc1ccccc1" is 0

DILI_severity_class for "C=C(c1ccc(C(=O)O)cc1)c1cc2c(cc1C)C(C)(C)CCC2(C)C" is 8

DILI_severity_class for "Clc1ccc2c(c1)C(N1CCNCC1)=Nc1ccccc1O2" is 3

DILI_severity_class for "CN1CCc2cccc3c2[C@H]1Cc1ccc(O)c(O)c1-3" is 0

DILI_severity_class for CC(NC(C)(C)C)C(=O)c1cccc(Cl)c1 (stereo not given) is 5

DILI_severity_class for "C[C@H]1c2cccc(O)c2C(=O)C2=C(O)[C@]3(O)C(=O)C(C(N)=O)=C(O)[C@@H](N(C)C)[C@@H]3[C@@H](O)[C@@H]21.O" is 3

DILI_severity_class for "CCCCc1nc(Cl)c(CO)n1Cc1ccc(-c2ccccc2-c2nn[nH]n2)cc1" is 4
